- Test system: UACC-62 melanoma
- Method description: NCI-60 one-dose screen, 48 h (100 = growth as untreated, 0 = no growth, -100 = all killed)
- Stated conditions: 10 µM unless noted
Compounds without any hit were thinned out: in the full panel of roughly 83,000, 20% have a hit.
Entry flag: Yes if growth reaches 70%; No if it does not.

Compound	Target or system	Class name
CCc1oc2ccccc2c1C(=O)c1cc(I)c(O)c(I)c1	UACC-62 melanoma	No
Cc1cc(C)cc(CCCCCCCCCCCCCCCCCC(=O)O)c1	UACC-62 melanoma	Yes
COc1ccc(Nc2ncnc3c2sc2nc(C)cc(C)c23)cc1	UACC-62 melanoma	Yes
Cc1cc(O)ccc1C1=NN(c2ccc(S(N)(=O)=O)cc2)C(=O)CC1	UACC-62 melanoma	No
CCCCc1n(Cc2ccc3ccccc3n2)cc[n+]1Cc1ccc2ccccc2n1	UACC-62 melanoma	No
Cc1ccc(O)c(Cc2ccccc2)c1	UACC-62 melanoma	Yes
NC(=O)Nc1ccc2ncnc(Nc3cccc(O)c3)c2c1	UACC-62 melanoma	Yes
O=C(CCc1nc2sc3c(c2c(=O)[nH]1)CCC3)NCc1cn(-c2ccccc2)nc1-c1ccccc1	UACC-62 melanoma	Yes
Cc1ccc(C2CC(c3cccs3)=NN2c2ccc(S(N)(=O)=O)cc2)s1 (centres undefined)	UACC-62 melanoma	No
COC(=O)c1cc(Cl)cc([N+](=O)[O-])c1O	UACC-62 melanoma	Yes
CC(=O)c1ccc(-n2c(-c3cc(-c4ccsc4)n[nH]3)n[nH]c2=S)cc1	UACC-62 melanoma	Yes
COc1ccc2[nH]c(O)c(/C=c3/ccc4c(c3)N=C(c3ccc(F)cc3)N=4)c2c1	UACC-62 melanoma	Yes
CN(C)c1ccc(Nc2c3ccccc3nc3ccccc23)cc1	UACC-62 melanoma	No
COC(=O)C(C)NC1=C(Cl)C(=O)C(NC(C)C(=O)OC)=C(Cl)C1=O (centres undefined)	UACC-62 melanoma	Yes
C=CCn1c(C)nc2cc(Nc3nc(Nc4ccc5nc(C)n(CC=C)c5c4)nc4ccccc34)ccc21	UACC-62 melanoma	Yes
COc1cc(C2C=C(C)N=C3SC=NN32)cc(OC)c1OC (centres undefined)	UACC-62 melanoma	Yes
COc1ccccc1NC(=O)OCC12COCN1COC2	UACC-62 melanoma	Yes
COc1ccc2c(c1)CCCC21C(=O)Nc2c(Cl)cccc21 (centres undefined)	UACC-62 melanoma	No
